Provenance of the data: patent US8029764B2

- Test system: colorectal tissue transcripts
- methodNotes: SAGE of normal, adenoma and cancer colorectal tissue (transcript tag counts)
- Set-up: species or system human
- runConditions: SAGE library CA2
readoutType: CA2 (SAGE tag count)
Please state the value as a number alone, without comment.

*Q* Could you share which CA2 (SAGE tag count) value was measured for GCTGGCCCCG (chemistry not fully specified) ?
*A* 1

*Q* Could you share which CA2 (SAGE tag count) value was measured for GAGAGCTCCC (chemistry not fully specified) ?
*A* 1

*Q* Could you share which CA2 (SAGE tag count) value was measured for CTGAACCTCC (chemistry not fully specified) ?
*A* 0

*Q* Could you share which CA2 (SAGE tag count) value was measured for CAAGAGTTTC (chemistry not fully specified) ?
*A* 0

*Q* Could you share which CA2 (SAGE tag count) value was measured for ATGGTCTACG (chemistry not fully specified) ?
*A* 0

*Q* Could you share which CA2 (SAGE tag count) value was measured for CGTGGGTGGG (chemistry not fully specified) ?
*A* 1

*Q* Could you share which CA2 (SAGE tag count) value was measured for CCAGGGGAGA (chemistry not fully specified) ?
*A* 20

* * *

- System: colorectal tissue transcripts
- methodNotes: SAGE of normal, adenoma and cancer colorectal tissue (transcript tag counts)
- Design: species or system human
- runConditions: SAGE library CA1
readoutType: CA1 (SAGE tag count)
Please state the value as a number alone, without comment.

*Q* Could you share which CA1 (SAGE tag count) value was measured for CAGTGCGTTC (chemistry not fully specified) ?
*A* 3

*Q* Could you share which CA1 (SAGE tag count) value was measured for AAGGTAGCAG (chemistry not fully specified) ?
*A* 2

*Q* Could you share which CA1 (SAGE tag count) value was measured for CTGGCCCTCG (chemistry not fully specified) ?
*A* 15

*Q* Could you share which CA1 (SAGE tag count) value was measured for GGGCGCTGTG (chemistry not fully specified) ?
*A* 4

*Q* Could you share which CA1 (SAGE tag count) value was measured for GCTGGCACAT (chemistry not fully specified) ?
*A* 6

*Q* Could you share which CA1 (SAGE tag count) value was measured for GGAACAGGGG (chemistry not fully specified) ?
*A* 0

*Q* Could you share which CA1 (SAGE tag count) value was measured for CTGTACTTGT (chemistry not fully specified) ?
*A* 0

*Q* Could you share which CA1 (SAGE tag count) value was measured for AAGAAGCAGG (chemistry not fully specified; the letters are possibly those of the target site) ?
*A* 1

*Q* Could you share which CA1 (SAGE tag count) value was measured for ATTGGAGTGC (chemistry not fully specified) ?
*A* 37

*Q* Could you share which CA1 (SAGE tag count) value was measured for CGTGGGTGGG (chemistry not fully specified) ?
*A* 0

*Q* Could you share which CA1 (SAGE tag count) value was measured for GCGAAACCCT (chemistry not fully specified) ?
*A* 64

*Q* Could you share which CA1 (SAGE tag count) value was measured for CGCTGTGGGG (chemistry not fully specified) ?
*A* 8

*Q* Could you share which CA1 (SAGE tag count) value was measured for CCTCCAGCTA (chemistry not fully specified) ?
*A* 131

*Q* Could you share which CA1 (SAGE tag count) value was measured for CGAGGGGCCA (chemistry not fully specified) ?
*A* 12

*Q* Could you share which CA1 (SAGE tag count) value was measured for CCAACACCAG (chemistry not fully specified) ?
*A* 0

*Q* Could you share which CA1 (SAGE tag count) value was measured for AAGAAAGCTC (chemistry not fully specified) ?
*A* 1

*Q* Could you share which CA1 (SAGE tag count) value was measured for AATGAGAAGG (chemistry not fully specified) ?
*A* 1

*Q* Could you share which CA1 (SAGE tag count) value was measured for CCTGTCTGCC (chemistry not fully specified) ?
*A* 1

*Q* Could you share which CA1 (SAGE tag count) value was measured for ATGCGGGAGA (chemistry not fully specified) ?
*A* 5

*Q* Could you share which CA1 (SAGE tag count) value was measured for ATGGTGGGGG (chemistry not fully specified) ?
*A* 1

* * *

- Tested on: colorectal tissue transcripts
- methodNotes: SAGE of normal, adenoma and cancer colorectal tissue (transcript tag counts)
- Parameters: species or system human
- runConditions: SAGE library AD1
Assign labels as follows, please: Fulfilled for AD1 (SAGE tag count) below 2; Not fulfilled for AD1 (SAGE tag count) equal to or exceeding 2.

*Q* Answer whether the sequence GGGACGAGTG (chemistry not fully specified) has AD1 (SAGE tag count) strictly less than 2
*A* Fulfilled

*Q* Answer whether the sequence CTGGCCCTCG (chemistry not fully specified) has AD1 (SAGE tag count) strictly less than 2
*A* Fulfilled

*Q* Answer whether the sequence ACTGTGGCGG (chemistry not fully specified) has AD1 (SAGE tag count) strictly less than 2
*A* Not fulfilled

*Q* Answer whether the sequence ATGCGGAGTC (chemistry not fully specified) has AD1 (SAGE tag count) strictly less than 2
*A* Not fulfilled

*Q* Answer whether the sequence CAAGAGTTTC (chemistry not fully specified) has AD1 (SAGE tag count) strictly less than 2
*A* Fulfilled

*Q* Answer whether the sequence ATACTCCACT (chemistry not fully specified) has AD1 (SAGE tag count) strictly less than 2
*A* Fulfilled

*Q* Answer whether the sequence ACAGGGTGAC (chemistry not fully specified) has AD1 (SAGE tag count) strictly less than 2
*A* Fulfilled

*Q* Answer whether the sequence ACACCCATCA (chemistry not fully specified) has AD1 (SAGE tag count) strictly less than 2
*A* Fulfilled

*Q* Answer whether the sequence GCTGCCCTTG (chemistry not fully specified) has AD1 (SAGE tag count) strictly less than 2
*A* Not fulfilled

*Q* Answer whether the sequence CGGTGGGACC (target site or template, no part of the molecule; chemistry not given here) has AD1 (SAGE tag count) strictly less than 2
*A* Fulfilled

*Q* Answer whether the sequence CATAGGTTTA (chemistry not fully specified) has AD1 (SAGE tag count) strictly less than 2
*A* Not fulfilled

*Q* Answer whether the sequence GATATGTAAA (chemistry not fully specified) has AD1 (SAGE tag count) strictly less than 2
*A* Fulfilled

*Q* Answer whether the sequence CCTGCTGCAG (chemistry not fully specified) has AD1 (SAGE tag count) strictly less than 2
*A* Fulfilled

*Q* Answer whether the sequence GCACCCTTTC (chemistry not fully specified) has AD1 (SAGE tag count) strictly less than 2
*A* Fulfilled

*Q* Answer whether the sequence GTCATCACCA (chemistry not fully specified; the letters are possibly those of the target site) has AD1 (SAGE tag count) strictly less than 2
*A* Fulfilled

*Q* Answer whether the sequence AATAAAGGCT (chemistry not fully specified) has AD1 (SAGE tag count) strictly less than 2
*A* Not fulfilled

*Q* Answer whether the sequence GGCACCGTGC (chemistry not fully specified) has AD1 (SAGE tag count) strictly less than 2
*A* Not fulfilled

*Q* Answer whether the sequence GGCCCTGCAG (chemistry not fully specified) has AD1 (SAGE tag count) strictly less than 2
*A* Fulfilled

*Q* Answer whether the sequence GAGAGCTCCC (chemistry not fully specified) has AD1 (SAGE tag count) strictly less than 2
*A* Not fulfilled

*Q* Answer whether the sequence GCCCAGGTCA (chemistry not fully specified) has AD1 (SAGE tag count) strictly less than 2
*A* Not fulfilled

*Q* Answer whether the sequence GGTGAAGAGG (chemistry not fully specified) has AD1 (SAGE tag count) strictly less than 2
*A* Not fulfilled

*Q* Answer whether the sequence AAGAAGCAGG (chemistry not fully specified; the letters are possibly those of the target site) has AD1 (SAGE tag count) strictly less than 2
*A* Not fulfilled

*Q* Answer whether the sequence CCTGTCTGCC (chemistry not fully specified) has AD1 (SAGE tag count) strictly less than 2
*A* Fulfilled

*Q* Answer whether the sequence CCGCTGCACT (chemistry not fully specified) has AD1 (SAGE tag count) strictly less than 2
*A* Not fulfilled

*Q* Answer whether the sequence CCTTCAAATC (chemistry not fully specified) has AD1 (SAGE tag count) strictly less than 2
*A* Fulfilled

*Q* Answer whether the sequence GGCTGGGCCT (chemistry not fully specified) has AD1 (SAGE tag count) strictly less than 2
*A* Not fulfilled

*Q* Answer whether the sequence ATGCGGGAGA (chemistry not fully specified) has AD1 (SAGE tag count) strictly less than 2
*A* Not fulfilled

*Q* Answer whether the sequence CAGTGCGTTC (chemistry not fully specified) has AD1 (SAGE tag count) strictly less than 2
*A* Fulfilled

*Q* Answer whether the sequence CTTAGAGGGG (chemistry not fully specified) has AD1 (SAGE tag count) strictly less than 2
*A* Fulfilled

* * *

Could you please report measured NC2 (SAGE tag count) for the items listed next?
- Tested on: colorectal tissue transcripts
- methodNotes: SAGE of normal, adenoma and cancer colorectal tissue (transcript tag counts)
- Set-up: species or system human
- runConditions: SAGE library NC2
Please state the value as a number alone, without comment.

*Q* Could you share which NC2 (SAGE tag count) value was measured for CTTACAAGCA (chemistry not fully specified) ?
*A* 13

*Q* Could you share which NC2 (SAGE tag count) value was measured for ACCCCCCCGC (chemistry not fully specified) ?
*A* 38

*Q* Could you share which NC2 (SAGE tag count) value was measured for GCCCAGGGCC (chemistry not fully specified; the letters are possibly those of the target site) ?
*A* 44

*Q* Could you share which NC2 (SAGE tag count) value was measured for ATATAATCTG (chemistry not fully specified) ?
*A* 14

*Q* Could you share which NC2 (SAGE tag count) value was measured for AGGCCAAGGG (chemistry not fully specified) ?
*A* 6

*Q* Could you share which NC2 (SAGE tag count) value was measured for ATGACGCTCA (chemistry not fully specified) ?
*A* 18

*Q* Could you share which NC2 (SAGE tag count) value was measured for CAAATAAAAG (chemistry not fully specified) ?
*A* 12

*Q* Could you share which NC2 (SAGE tag count) value was measured for CCTTCAAATC (chemistry not fully specified) ?
*A* 17

*Q* Could you share which NC2 (SAGE tag count) value was measured for ACACCCATCA (chemistry not fully specified) ?
*A* 27

*Q* Could you share which NC2 (SAGE tag count) value was measured for GACATCAAGT (chemistry not fully specified) ?
*A* 87

*Q* Could you share which NC2 (SAGE tag count) value was measured for GCCCAGTGGC (chemistry not fully specified) ?
*A* 0

*Q* Could you share which NC2 (SAGE tag count) value was measured for ACCCACGTCA (chemistry not fully specified) ?
*A* 10

*Q* Could you share which NC2 (SAGE tag count) value was measured for GTCCTGAACA (chemistry not fully specified) ?
*A* 3

*Q* Could you share which NC2 (SAGE tag count) value was measured for GATGAATCCG (chemistry not fully specified) ?
*A* 14

*Q* Could you share which NC2 (SAGE tag count) value was measured for AAGGTAGCAG (chemistry not fully specified) ?
*A* 16

*Q* Could you share which NC2 (SAGE tag count) value was measured for AGCCCGACCA (chemistry not fully specified) ?
*A* 8

*Q* Could you share which NC2 (SAGE tag count) value was measured for AGGTGACTGG (chemistry not fully specified) ?
*A* 14

*Q* Could you share which NC2 (SAGE tag count) value was measured for CCTCCAGTAC (chemistry not fully specified) ?
*A* 8

*Q* Could you share which NC2 (SAGE tag count) value was measured for CCGCTGCACT (chemistry not fully specified) ?
*A* 102

*Q* Could you share which NC2 (SAGE tag count) value was measured for GTCATCACCA (chemistry not fully specified; the letters are possibly those of the target site) ?
*A* 22

*Q* Could you share which NC2 (SAGE tag count) value was measured for ACGGTCCAGG (chemistry not fully specified) ?
*A* 12

*Q* Could you share which NC2 (SAGE tag count) value was measured for CGGGAGTCGG (chemistry not fully specified) ?
*A* 30

*Q* Could you share which NC2 (SAGE tag count) value was measured for CTGTACTTGT (chemistry not fully specified) ?
*A* 5

*Q* Could you share which NC2 (SAGE tag count) value was measured for CTGAACCTCC (chemistry not fully specified) ?
*A* 15

*Q* Could you share which NC2 (SAGE tag count) value was measured for CCCCCGCGGA (chemistry not fully specified) ?
*A* 25

*Q* Could you share which NC2 (SAGE tag count) value was measured for CTGGGCCTCT (chemistry not fully specified) ?
*A* 22

*Q* Could you share which NC2 (SAGE tag count) value was measured for CCTGCTTGTC (chemistry not fully specified) ?
*A* 23

*Q* Could you share which NC2 (SAGE tag count) value was measured for GTGGGGGCGC (chemistry not fully specified) ?
*A* 22

*Q* Could you share which NC2 (SAGE tag count) value was measured for GCTGCCCTTG (chemistry not fully specified) ?
*A* 6

*Q* Could you share which NC2 (SAGE tag count) value was measured for GACCAGCCCA (chemistry not fully specified) ?
*A* 21

*Q* Could you share which NC2 (SAGE tag count) value was measured for GACCAGTGGC (chemistry not fully specified) ?
*A* 44

*Q* Could you share which NC2 (SAGE tag count) value was measured for GGGCGCTGTG (chemistry not fully specified) ?
*A* 27

*Q* Could you share which NC2 (SAGE tag count) value was measured for CCCCCTGCAT (chemistry not fully specified) ?
*A* 4

*Q* Could you share which NC2 (SAGE tag count) value was measured for CGGACTCACT (chemistry not fully specified) ?
*A* 45

*Q* Could you share which NC2 (SAGE tag count) value was measured for GGCTCGGGAT (chemistry not fully specified) ?
*A* 11

*Q* Could you share which NC2 (SAGE tag count) value was measured for CCTGTGACAG (chemistry not fully specified) ?
*A* 27
